details: in n-butanol, 298.15 K
observable: solubility (mole fraction)

Suppose we examine the compound Cc1ccc(S(=O)(=O)NC(=O)NN2CC3CCCC3C2)cc1 (stereo unspecified) ; what solubility (mole fraction) value has been reported? 0.00152

###

conditions: in ethyl acetate, 303.15 K
observable: solubility (mole fraction)

Name the recorded solubility (mole fraction) for Cc1ccc(S(=O)(=O)NC(=O)NN2CC3CCCC3C2)cc1 (stereo unspecified) . 0.00351

###

settings: in sec-butanol, 298.15 K
observable: solubility (mole fraction)
Give only the figure.

# lookup: solubility (mole fraction) of Cc1ccc(S(=O)(=O)NC(=O)NN2CC3CCCC3C2)cc1 (stereo unspecified) 0.00133

###

conditions: in sec-butanol, 278.15 K
observable: solubility (mole fraction)

Item Cc1ccc(S(=O)(=O)NC(=O)NN2CC3CCCC3C2)cc1 (stereo unspecified) has what recorded solubility (mole fraction)? 0.000505

###

conditions: in DMF, 283.15 K
observable: solubility (mole fraction)
Answer field: number only, no words.

Given the molecule Cc1ccc(S(=O)(=O)NC(=O)NN2CC3CCCC3C2)cc1 (stereo unspecified) , what is its reported solubility (mole fraction)? 0.0629

###

details: in ethyl formate, 308.15 K
observable: solubility (mole fraction)
// keep it numeric: no unit symbol after the value

Please report the recorded solubility (mole fraction) for Cc1ccc(S(=O)(=O)NC(=O)NN2CC3CCCC3C2)cc1 (stereo unspecified) . 0.00673

###

conditions: in chloroform, 308.15 K
observable: solubility (mole fraction)

What solubility (mole fraction) value was documented for this compound, Cc1ccc(S(=O)(=O)NC(=O)NN2CC3CCCC3C2)cc1 (stereo unspecified) ? 0.1

###

conditions: in ethanol, 298.15 K
observable: solubility (mole fraction)
Reply briefly: the number, and no unit.

Entry under review: Cc1ccc(S(=O)(=O)NC(=O)NN2CC3CCCC3C2)cc1 (stereo unspecified) . Reported solubility (mole fraction)? 0.00169

###

details: in sec-butanol, 308.15 K
observable: solubility (mole fraction)

I have this compound here, Cc1ccc(S(=O)(=O)NC(=O)NN2CC3CCCC3C2)cc1 (stereo unspecified) , and I need its recorded solubility (mole fraction). 0.00205

###

settings: in DMF, 298.15 K
observable: solubility (mole fraction)
# output: bare number, no unit

Record request: solubility (mole fraction) value, item Cc1ccc(S(=O)(=O)NC(=O)NN2CC3CCCC3C2)cc1 (stereo unspecified) 0.0801

###

conditions: in methyl acetate, 293.15 K
observable: solubility (mole fraction)
In your answer, state the number alone without any accompanying words.

Quick check: solubility (mole fraction) of Cc1ccc(S(=O)(=O)NC(=O)NN2CC3CCCC3C2)cc1 (stereo unspecified) ? 0.00418

###

details: in ethyl acetate, 318.15 K
observable: solubility (mole fraction)

State the recorded solubility (mole fraction) for this entry: Cc1ccc(S(=O)(=O)NC(=O)NN2CC3CCCC3C2)cc1 (stereo unspecified) 0.00558

###

conditions: in toluene, 308.15 K
observable: solubility (mole fraction)

Consider the molecule shown here: Cc1ccc(S(=O)(=O)NC(=O)NN2CC3CCCC3C2)cc1 (stereo unspecified) What is its recorded solubility (mole fraction)? 0.00119

###

conditions: in toluene, 318.15 K
observable: solubility (mole fraction)
# output: bare number, no unit

Fill blank: measured solubility (mole fraction) of the compound Cc1ccc(S(=O)(=O)NC(=O)NN2CC3CCCC3C2)cc1 (stereo unspecified) is ____. 0.00181

Where these numbers come from: BigSolDB 2.1
